Origin of measurements: patent US20230357384A1

Target: T1, FLRT3-His monomeric fusion protein (Homo sapiens (Human), UniProt Q9NZU0 29-528)
T1 construct: also called FLRT3 monomer; not shown: His tag
T1 sequence: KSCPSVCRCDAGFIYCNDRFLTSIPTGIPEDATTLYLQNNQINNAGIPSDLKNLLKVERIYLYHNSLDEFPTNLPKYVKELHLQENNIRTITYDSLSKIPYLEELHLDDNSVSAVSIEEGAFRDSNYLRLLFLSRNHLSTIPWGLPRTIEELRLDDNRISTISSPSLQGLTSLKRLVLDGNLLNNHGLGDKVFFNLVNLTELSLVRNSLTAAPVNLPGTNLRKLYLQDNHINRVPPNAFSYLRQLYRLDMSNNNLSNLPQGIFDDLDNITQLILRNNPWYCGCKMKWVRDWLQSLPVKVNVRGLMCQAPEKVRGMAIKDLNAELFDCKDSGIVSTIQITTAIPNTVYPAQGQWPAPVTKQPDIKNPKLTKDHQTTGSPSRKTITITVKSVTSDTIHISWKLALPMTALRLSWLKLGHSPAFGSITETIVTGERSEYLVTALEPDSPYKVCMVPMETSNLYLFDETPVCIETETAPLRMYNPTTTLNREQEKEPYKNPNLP
Assay: kinetic affinity measurement with FLRT3-His monomer (Table 1)
RECORDED_METRIC: kon (M⁻¹ s⁻¹)
Write the answer as a number in M⁻¹ s⁻¹, unit excluded.

Prompt line: Which kon is listed for 2F7 (antibody, V domains shown, Variable domains only) VH: EVQLQQSGPELVKPGASVKMSCKASGYTFTDYYMNWVKQSHGKSLEWIGRVYPSNSGASYNQKFKGKATLTVDKSLSTAYMQLNSLTSEDSAVYYCASSYYFDYWGQGTTLTVSS VL: DIVMTQSHKFMSTSIGDRVNITCKASQDVGTAVAWFQQKPGQSPKLLIYWASTRHTGVPDRFTGSGSGTDFTLTISNVQSEDLADYFCQQYSSYPTFGAGTTLELK ?
Response line: 177000
